Test: Volume of distribution at steady state in Wistar rat at 0.5 mg/kg, iv and 1 mg/kg, po
Format: ADME, organism-based
Conditions: in vivo, read-out: Vdss
readout: Vd (L/kg)

smiles_data=COc1ccc2ncc(F)c([C@@H](O)[C@H](O)[C@@H]3CC[C@@H](NCc4cc5c(cn4)OCCS5)CO3)c2n1 measured=1

###

Assay: Fraction unbound in Wistar rat plasma at 0.5 mg/kg, iv and 1 mg/kg, po
Assay type: ADME, organism-based
readout: fraction unbound

smiles_data=COc1ccc2ncc(F)c([C@@H](O)[C@H](O)[C@@H]3CC[C@@H](NCc4cc5c(cn4)OCCS5)CO3)c2n1 measured=0.017

###

Experiment: Intrinsic clearance in human liver microsomes at 1 uM
Format: ADME, Microsome
Settings: read-out: CLH
readout: microsomal CLint at 1 µM

smiles_data=COc1ccc2nccc(CC[C@@H]3CC[C@@H](NCc4ccc5c(n4)NC(=O)CS5)CO3)c2n1 measured="347 µL/min/mg"
smiles_data=COc1cnc2cccc([C@@H](O)[C@H](O)[C@@H]3CC[C@@H](NCc4ccc5c(n4)NC(=O)CS5)CO3)c2n1 measured="45 µL/min/mg"
smiles_data=COc1ccc2ncc(F)c([C@@H](O)[C@H](O)[C@@H]3CC[C@@H](NCc4cc5c(cn4)OCCS5)CO3)c2n1 measured="30 µL/min/mg"

###

Reported MIC values for the following compounds.
System: Streptococcus pneumoniae
Assay: Antibacterial activity against wild type Streptococcus pneumoniae ATCC 49619 assessed as growth inhibition by broth microdilution method
Assay type: functional
readout: MIC (µg/mL)

smiles_data=COc1ccc2nccc(OC[C@@H]3CC[C@@H](NCc4ccc5c(n4)NC(=O)CS5)CO3)c2n1 result_unit=µg/mL measured=0.25
smiles_data=COc1ccc2cccc([C@@H](O)[C@H](O)[C@@H]3CC[C@@H](NCc4ccc5c(n4)NC(=O)CS5)CO3)c2n1 result_unit=µg/mL measured=0.06
smiles_data=COc1ccc2ncc(F)c([C@@H](O)[C@H](O)[C@@H]3CC[C@@H](NCc4ccc5c(n4)NC(=O)CS5)CO3)c2c1 result_unit=µg/mL measured=0.25
smiles_data=COc1cnc2ccc(F)c([C@@H](O)[C@H](O)[C@@H]3CC[C@@H](NCc4cc5c(nn4)OCCS5)CO3)c2n1 result_unit=µg/mL measured=0.125

###

System: Staphylococcus aureus
Assay: Antibacterial activity against methicillin and quinolone-resistant Staphylococcus aureus A-798 assessed as growth inhibition by broth microdilution method
Type: functional
readout: MIC (µg/mL)

molecule=N#Cc1ccc2ccc(=O)n(CCN3CC[C@H](NCc4cc5c(cn4)OCCO5)[C@H](F)C3)c2c1 system="Staphylococcus aureus" readout=MIC censoring_operator== measured=0.015
molecule="O=c1ccc2ccc(F)c3c2n1CC3CN1CCC(NCc2cc3c(cn2)OCCO3)CC1 (stereo not given)" system="Staphylococcus aureus" readout=MIC censoring_operator== measured=0.015
molecule=O=C(O)c1cn(C2CC2)c2cc(N3CCNCC3)c(F)cc2c1=O system="Staphylococcus aureus" readout=MIC censoring_operator=> measured=8
molecule=COc1ccc2nccc(NC(=O)[C@H]3CC[C@H](NCc4ccc5c(n4)NC(=O)CS5)CC3)c2n1 system="Staphylococcus aureus" readout=MIC censoring_operator== measured=0.015
molecule=COc1ccc2ncc(F)c([C@@H](O)CC[C@@H]3CCN(CCSc4cccs4)C[C@@H]3C(=O)O)c2c1 system="Staphylococcus aureus" readout=MIC censoring_operator== measured=0.25
